Molecular target: human GcgR (Homo sapiens, UniProt P47871)
Sequence (P47871 26-477): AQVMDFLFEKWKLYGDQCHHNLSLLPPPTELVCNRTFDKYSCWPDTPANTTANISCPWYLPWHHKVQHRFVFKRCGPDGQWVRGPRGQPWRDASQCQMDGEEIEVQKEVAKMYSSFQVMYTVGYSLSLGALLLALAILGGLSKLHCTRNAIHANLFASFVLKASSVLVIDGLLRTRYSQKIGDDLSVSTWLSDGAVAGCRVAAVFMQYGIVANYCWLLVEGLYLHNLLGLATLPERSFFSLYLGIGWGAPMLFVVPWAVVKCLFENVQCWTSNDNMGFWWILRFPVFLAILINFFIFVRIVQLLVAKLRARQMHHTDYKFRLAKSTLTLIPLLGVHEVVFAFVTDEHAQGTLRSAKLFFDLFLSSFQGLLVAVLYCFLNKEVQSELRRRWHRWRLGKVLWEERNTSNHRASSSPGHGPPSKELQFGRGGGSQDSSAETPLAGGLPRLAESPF
Experiment: Functional cAMP activity in the presence of 1% HSA
Format: cell-based
Details: read-out: cAMP Rel EC50, hGcgR
Starred links: 1 amine or outer side, 2 acyl side, 3 side chain; linkers in the order of their positions; H or OH if unused. Non-standard residues stand in square brackets, D forms with d. Groups on a side chain read outwards from the residue. *: point of attachment. C20 diacid = O=C(O)CCCCCCCCCCCCCCCCCCC(=O)*; C18 diacid = O=C(O)CCCCCCCCCCCCCCCCC(=O)*; Phe(4-CN) = N#Cc1ccc(C[C@H](N)C(=O)O)cc1; αMePhe(2-F) = C[C@](N)(Cc1ccccc1F)C(=O)O; γGlu = O=C(O)[C@H](CCC(=O)[*:2])N[*:1]; αMeY = C[C@](N)(Cc1ccc(O)cc1)C(=O)O; 4Pal = N[C@@H](Cc1ccncc1)C(=O)O; αMeL = CC(C)C[C@](C)(N)C(=O)O; αMeS = C[C@](N)(CO)C(=O)O; Orn = NCCC[C@H](N)C(=O)O; AEEA = NCCOCCOCC(=O)O; Aib = CC(C)(N)C(=O)O
Quantity: EC50 (µM)
Report the figure in µM without appending any unit label.

H-Y[Aib]QGTFTSDFS[Orn][αMeL]LDKK([AEEA-γGlu-C18 diacid])AQ[Aib]AFIEYLLEGGPSSGEPPPSGS-NH2 [Example 131] | 0.976

Field: EC50 (human GcgR (Homo sapiens, UniProt P47871)). Entry: H-Y[Aib]QGT[αMePhe(2-F)]TSD[Phe(4-CN)]SILLDKQAQK([AEEA-AEEA-γGlu-C20 diacid])AFIEYLLEGGPSSGEPPPSAG-NH2 [Example 350]
3.76

Field: EC50 (human GcgR (Homo sapiens, UniProt P47871)). Entry: H-Y[Aib]QGT[αMePhe(2-F)]TSD[4Pal][αMeS]I[αMeL]LD[Orn]K([AEEA-γGlu-C18 diacid])AQ[Aib][Orn]FI[dE][αMeY]LIEGGPSSGEPPPSEG-NH2 [Example 401]
0.111
